- Test system: JEV RVP
- assay: in vitro
- experimental-context: African green monkey, SI (selective index, CC50/IC50), Vero cells
Where a name gives a salt, the structure may show the parent alone.

molecule	selectivity ratio
CCOC(=O)C1=C(C)NC(C)=C(C(=O)OCC)C1c1ccccc1/C=C/C(=O)OC(C)(C)C	4
Clc1ccc(CCC(Cn2ccnc2)Sc2c(Cl)cccc2Cl)cc1 (centres unmarked) [Butoconazole Nitrate]	4
Cc1c(O)cccc1C(=O)N[C@@H](CSc1ccccc1)[C@H](O)CN1C[C@H]2CCCC[C@H]2C[C@H]1C(=O)NC(C)(C)C [Nelfinavir Mesylate]	16.8
COCCOC(=O)C1=C(C)NC(C)=C(C(=O)OC/C=C/c2ccccc2)C1c1cccc([N+](=O)[O-])c1 (centres unmarked)	> 28.6
Clc1ccc(C(c2ccccc2Cl)C(Cl)Cl)cc1 (centres unmarked)	3.9
CC[C@@H]1/C=C(\C)C[C@H](C)C[C@H](OC)[C@H]2O[C@@](O)(C(=O)C(=O)N3CCCC[C@H]3C(=O)O[C@H](/C(C)=C/[C@@H]3CC[C@H](Cl)[C@H](OC)C3)[C@H](C)[C@@H](O)CC1=O)[C@H](C)C[C@@H]2OC	> 32.3
COC(=O)C1=C(C)NC(C)=C(C(=O)OCCN2CCN(C(c3ccccc3)c3ccccc3)CC2)C1c1cccc([N+](=O)[O-])c1 (centres unmarked)	> 62.5
COC(=O)C1=C(C)NC(C)=C(C(=O)OC2CCCN(Cc3ccccc3)C2)C1c1cccc([N+](=O)[O-])c1 (centres unmarked) [Benidipine hydrochloride]	15

###

- Tested on: JEV RVP
- assay: microbe, parasite or virus in culture
- experimental-context: Japanese encephalitis virus, Vero, read-out: level of inhibition in the primary screen
Counter-ions that a name gives are not always drawn.
measured-property: inhibition at 10 µM

> print(dat)
                                   molecule  target.or.system  observed.result
1  COC(=O)C1=C(C)NC(C)=C(C(=O)OCC(C)C)C1c1ccccc1[N+](=O)[O-] (stereo not shown)           JEV RVP              75%
2  CCOC(=O)C1=C(C)NC(C)=C(C(=O)OC)C1c1cccc(Cl)c1Cl (stereo not shown)           JEV RVP              72%
3  Fc1ccc(C(c2ccc(F)cc2)N2CCN(C/C=C/c3ccccc3)CC2)cc1 [flunarizine dihydrochloride]           JEV RVP            > 90%
4  COC(=O)C1=C(C)NC(C)=C(C(=O)OCCN(C)Cc2ccccc2)C1c1cccc([N+](=O)[O-])c1 (stereo not shown) [nicardipine hydrochloride]           JEV RVP              66%

###

- assay: Cytotoxicity (CC50) of compounds from the reconfirmation screen
- Type: cell-based
- experimental-context: African green monkey, Vero cells; 50% cytotoxic concentration
Counter-ions that a name gives are not always drawn.
Below, each of the compounds is paired with its reported CC50 value.
measured-property: CC50 (µM)

compound	measured-property	unit-name	value-prefix	observed-result
Cc1c(O)cccc1C(=O)N[C@@H](CSc1ccccc1)[C@H](O)CN1C[C@H]2CCCC[C@H]2C[C@H]1C(=O)NC(C)(C)C [Nelfinavir Mesylate]	CC50	µM	=	27.1
Clc1ccc(CCC(Cn2ccnc2)Sc2c(Cl)cccc2Cl)cc1 (centres unmarked) [Butoconazole Nitrate]	CC50	µM	=	15.7
CC[C@@H]1/C=C(\C)C[C@H](C)C[C@H](OC)[C@H]2O[C@@](O)(C(=O)C(=O)N3CCCC[C@H]3C(=O)O[C@H](/C(C)=C/[C@@H]3CC[C@H](Cl)[C@H](OC)C3)[C@H](C)[C@@H](O)CC1=O)[C@H](C)C[C@@H]2OC	CC50	µM	>	100
COC(=O)C1=C(C)NC(C)=C(C(=O)OC2CCCN(Cc3ccccc3)C2)C1c1cccc([N+](=O)[O-])c1 (centres unmarked) [Benidipine hydrochloride]	CC50	µM	=	55.9
CCOC(=O)C1=C(C)NC(C)=C(C(=O)OCC)C1c1ccccc1/C=C/C(=O)OC(C)(C)C	CC50	µM	=	14.1
COC(=O)C1=C(C)NC(C)=C(C(=O)OCCN2CCN(C(c3ccccc3)c3ccccc3)CC2)C1c1cccc([N+](=O)[O-])c1 (centres unmarked)	CC50	µM	>	100
Clc1ccc(C(c2ccccc2Cl)C(Cl)Cl)cc1 (centres unmarked)	CC50	µM	=	25.9
COCCOC(=O)C1=C(C)NC(C)=C(C(=O)OC/C=C/c2ccccc2)C1c1cccc([N+](=O)[O-])c1 (centres unmarked)	CC50	µM	>	100

This collection of values is drawn from paper PMC5640845.
